Give MIC90 for every item shown.
test system: Mycobacterium tuberculosis; experiment: Antitubercular activity against isoniazid resistant Mycobacterium tuberculosis H37Rv ATCC 35822 after 24 hrs by MABA method; type: functional; conditions: H37Rv ATCC 35822, 24 h
Number only, in µM; omit the unit.

INPUT: Under Mycobacterium tuberculosis: MIC90 value of "CO[C@H]1/C=C/O[C@@]2(C)Oc3c(C)c(O)c4c(O)c(c(/C=N/N5CCN(C)CC5)c(O)c4c3C2=O)NC(=O)/C(C)=C\C=C\[C@H](C)[C@H](O)[C@@H](C)[C@@H](O)[C@@H](C)[C@H](OC(C)=O)[C@@H]1C" ?
OUTPUT: 0.01

INPUT: Now the compound "COc1nc2ccc(Br)cc2cc1[C@@H](c1ccccc1)[C@@](O)(CCN(C)C)c1cccc2ccccc12"
OUTPUT: 0.01

INPUT: Now the compound "COc1c(N2C[C@@H]3CCCN[C@@H]3C2)c(F)cc2c(=O)c(C(=O)O)cn(C3CC3)c12"
OUTPUT: 0.23

INPUT: Now the compound "O=C(N/N=C/c1ccc2no[n+]([O-])c2c1)c1ccncc1"
OUTPUT: 8.59
